From: patent US10662204B2

ASSAY SYSTEM: KRAS G12C (Homo sapiens, UniProt P01116, G12C)
Sequence (P01116 1-188 isoform P01116-2 G12C): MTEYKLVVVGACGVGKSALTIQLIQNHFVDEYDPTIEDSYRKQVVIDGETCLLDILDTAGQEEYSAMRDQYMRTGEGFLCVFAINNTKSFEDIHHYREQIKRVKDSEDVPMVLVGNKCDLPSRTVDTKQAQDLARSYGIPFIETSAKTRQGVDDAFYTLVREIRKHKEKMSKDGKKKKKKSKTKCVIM
PROTOCOL SUMMARY: Cell Activity Assay: accumulation of GDP-bound KRAS G12C in MIAPaCa-2 cells (Raf-1 RBD capture, MSD readout)
Assay type: cell-based
Set-up: endogenous in cells; host or cells: MIAPaCa-2
EXPERIMENTAL PARAMETERS: 6 hours, assay limit is 30.00
MEASUREMENT LABEL: IC50 (µM)

// below: answered compounds
C=CC(=O)N1CCN(c2nc(O[C@@H]3CN(C)C[C@H]3CC)nc3c(Oc4c(Cl)c(F)cc5[nH]ncc45)nccc23)CC1 (racemic) [Example 21I]
0.094
C=CC(=O)N1CCN(c2nc(OC[C@@H]3CCCN3C)nc3c(Oc4c(Cl)c(F)cc5[nH]ncc45)nc(Cl)cc23)C[C@H]1C [Example 04G]
0.393
C=CC(=O)N1CCN(c2nc(O[C@@H]3CN(C)C[C@@H]3C)nc3c(Oc4c(Cl)c(F)cc5[nH]ncc45)nc(Cl)cc23)CC1 (racemic) [Example 31G]
0.135
C=CC(=O)N1CCN(c2nc(O[C@@H]3CN(C)C[C@H]3C(F)F)nc3c(Oc4c(Cl)c(F)cc5[nH]ncc45)nccc23)CC1 (single isomer, unassigned) [Example 58I]
0.006
C=CC(=O)N1CCN(c2nc(OCC3(F)CCN(C)CC3)nc3c(Oc4c(Cl)c(F)cc5[nH]ncc45)nc(Cl)cc23)CC1 [Example 15G]
0.019

a: C=CC(=O)N1CCN(c2nc(O[C@@H]3CN(CCOC)C[C@H]3OC)nc3c(Oc4c(Cl)c(F)cc5[nH]ncc45)nccc23)CC1 [Example 18H]
b: C=CC(=O)N1CCN(c2nc(OC[C@@H]3CCCN3C)nc3c(Oc4c(Cl)ccc5[nH]ncc45)cccc23)CC1 [Example 02L]
Hi, I'm comparing a with b and wondering which one has the bigger number for IC50. Any idea? Write down the label attached to your selection.
b
(b: 0.146 µM, a: 0.07 µM)

---

ASSAY SYSTEM: KRAS G12C (Homo sapiens, UniProt P01116, G12C)
PROTOCOL SUMMARY: Cell Activity Assay: IC50 in H358 cells
Format: cell-based
Set-up: endogenous in cells
MEASUREMENT LABEL: IC50 (µM)

Answered examples (5):
C=CC(=O)N1CCN(c2nc(OC[C@@H]3CCCN3C)nc3c(Oc4c(Cl)c(F)cc5[nH]ncc45)nc(Cl)cc23)CC1 [Example 01G]
0.06
C=CC(=O)N1CCN(c2nc(OC[C@@H]3C[C@H](OC)CN3C)nc3c(Oc4c(Cl)c(F)cc5[nH]ncc45)nc(Cl)cc23)CC1 [Example 20G]
0.152
C=CC(=O)N1CCN(c2nc(OC[C@@H]3CCCN3C)nc3c(Oc4c(C)ccc5[nH]ncc45)cccc23)CC1 [Example 07E]
0.501
C=CC(=O)N1CCN(c2ncnc3c(Oc4c(Cl)c(F)cc5[nH]ncc45)nc(Cl)cc23)CC1 [Example 20A]
0.758
C=CC(=O)N1CCN(c2nc(OC[C@@H]3CCCN3C)nc3c(Oc4c(Cl)ccc5[nH]ncc45)nc(Cl)cc23)CC1 [Example 09G]
0.123

I: C=CC(=O)N1CCN(c2nc(OCC3CCCO3)nc3c(Oc4c(Cl)c(F)cc5[nH]ncc45)nc(Cl)cc23)CC1 (centres unmarked) [Example 11G]
II: C=CC(=O)N1CCN(c2ncnc3c(Oc4c(Cl)c(C)cc5[nH]ncc45)nccc23)CC1 [Example 11A]
III: C=CC(=O)N1CCN(c2nc(N3CC(N(C)C)C3)nc3c(Oc4c(C)ccc5[nH]ncc45)nccc23)CC1 [Example 02B]
IV: C=CC(=O)N1CCN(c2nc(OC[C@H]3CN(C)C[C@@H]3OC)nc3c(Oc4c(Cl)c(F)cc5[nH]ncc45)nc(Cl)cc23)CC1 [Example 18G]
V: C=CC(=O)N1CCN(c2nc(OC[C@@H]3CCCN3C)nc3c(Oc4c(Cl)c(F)cc5[nH]ncc45)nccc23)CC1 [Example 01H]
Hey, quick one: sort these by IC50, largest value first please. The response must list the labels following the requested ordering.
III, II, I, V, IV
